Recorded values, source ChEMBL document CHEMBL3102758.

Please go through the items and note down their inhibition.
# assayed target: Beta-secretase 1 (Homo sapiens, UniProt P56817)
# Sequence (P56817 whole entry): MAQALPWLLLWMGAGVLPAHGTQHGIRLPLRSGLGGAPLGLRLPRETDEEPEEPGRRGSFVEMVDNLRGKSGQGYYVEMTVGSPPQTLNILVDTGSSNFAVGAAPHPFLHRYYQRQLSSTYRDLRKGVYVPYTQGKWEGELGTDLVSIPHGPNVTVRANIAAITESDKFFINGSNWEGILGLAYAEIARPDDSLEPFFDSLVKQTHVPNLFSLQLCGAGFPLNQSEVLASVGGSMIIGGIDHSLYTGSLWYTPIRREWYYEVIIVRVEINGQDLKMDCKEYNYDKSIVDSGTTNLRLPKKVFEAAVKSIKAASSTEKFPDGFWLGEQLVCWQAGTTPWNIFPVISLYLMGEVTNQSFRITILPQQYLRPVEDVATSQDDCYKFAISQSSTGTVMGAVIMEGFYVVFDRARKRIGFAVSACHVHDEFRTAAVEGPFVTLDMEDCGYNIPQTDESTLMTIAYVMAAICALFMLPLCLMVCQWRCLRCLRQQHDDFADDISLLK
# experiment notes: Inhibition of recombinant human BACE1 using (7-methoxycoumarin-4-yl)acetyl-SEVNL*DAEFRK(2,4-dinitrophenyl)-RR-NH2) as substrate at 2 uM by FRET assay
Numbers only, in %.

Incoming: Suppose we examine the compound CCCOc1cc(C(=O)N[C@@H](Cc2ccccc2)[C@H](O)C(=O)Nc2cccc(-c3nn[nH]n3)c2)nc(C(=O)N2COC[C@@H]2c2ccccc2)c1 ; what inhibition value has been reported?
Outgoing: 64

Incoming: Repeat for the following compound: CCOc1cc(C(=O)N[C@@H](Cc2ccccc2)[C@H](O)C(=O)Nc2cccc(-c3nn[nH]n3)c2)nc(C(=O)N2COC[C@@H]2c2ccccc2)c1
Outgoing: 79

Incoming: Repeat for the following compound: CCOc1cc(C(=O)N[C@@H](Cc2ccccc2)[C@H](O)C(=O)Nc2cccc(-c3nn[nH]n3)c2)nc(C(=O)N[C@H](C)c2ccccc2)c1
Outgoing: 46

Incoming: Repeat for the following compound: O=C(N[C@@H](Cc1ccccc1)[C@H](O)C(=O)Nc1cccc(-c2nn[nH]n2)c1)c1cc(=O)cc(C(=O)N(Cc2ccccc2)Cc2ccccc2)o1
Outgoing: 29

Incoming: Repeat for the following compound: CN(c1cc(C(=O)N[C@@H](Cc2ccccc2)[C@H](O)C(=O)Nc2cccc(-c3nn[nH]n3)c2)nc(C(=O)N2COC[C@@H]2c2ccccc2)c1)S(C)(=O)=O
Outgoing: 75

For the 2 compounds below, give their inhibition values.
1. CSc1cc(C(=O)N[C@@H](Cc2ccccc2)[C@H](O)C(=O)Nc2cccc(-c3nn[nH]n3)c2)nc(C(=O)NC(C)(C)c2ccccc2)c1
2. CCCN(CCC)C(=O)c1cc(=O)cc(C(=O)N[C@@H](Cc2ccccc2)[C@H](O)C(=O)Nc2cccc(-c3nnn[nH]3)c2)o1

Outgoing:
1: 85; 2: 6
